Overview of reported recombinant UMI read abundance (log10) across a group of sequences:
assay: recombinant UMI read abundance after kanamycin selection (control-corrected) (log10(CPM+1)); higher = more efficient recombination; extreme values may be limits of the assay; sequences stand for … in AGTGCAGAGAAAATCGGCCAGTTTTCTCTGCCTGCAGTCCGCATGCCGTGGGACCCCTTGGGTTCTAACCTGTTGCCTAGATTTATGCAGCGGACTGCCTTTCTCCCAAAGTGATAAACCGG…AGGTTGGTTTCACT; site = the 11-nt donor;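 also: IS621 bridge recombinase in Escherichia coli cells against a fixed T5 target plasmid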
EXPERIMENTAL ENDPOINT: recombinant UMI read abundance (log10)

SEQUENCE DATA: GATTGGTCATGGACCGGTTTTCCCGGTAATCCGTATTTGAC (site GATTGGTCTGT)
OBS VALUE: 0
//
SEQUENCE DATA: AATCGAACATGGACCGGTTTTCCCGGTAATCCGTATTTGTC (site AATCGAACTGA)
OBS VALUE: 0.559
//
SEQUENCE DATA: TATGAATCATGGACCGGTTTTCCCGGTAATCCGTATTTGCG (site TAGGAATCTCG)
OBS VALUE: 0.768
//
SEQUENCE DATA: CTTGCCCCATGGACCGGTTTTCCCGGTAATCCGTATTTGTA (site CTTGCCCCTTA)
OBS VALUE: 0.366
//
SEQUENCE DATA: CGTCTAGCATGGACCGGTTTTCCCGGTAATCCGTATTTGGC (site CGTCTAGCTGC)
OBS VALUE: 2.07
//
SEQUENCE DATA: AGTGTGTCATGGACCGGTTTTCCCGGTAATCCGTATTTGAC (site AGTGTGTCTGT)
OBS VALUE: 1.98
//
SEQUENCE DATA: ATGTACGCATGGACCGGTTTTCCCGGTAATCCGTATTTGGC (site ATGTAAGCTGC)
OBS VALUE: 1.81
//
SEQUENCE DATA: GATTGGGCATGGACCGGTTTTCCCGGTAATCCGTATTTGAC (site GATTGGGCTGT)
OBS VALUE: 1.51
//
SEQUENCE DATA: GAGACAACATGGACCGGTTTTCCCGGTAATCCGTATTTGAA (site GAGACAACTTT)
OBS VALUE: 0.852

----------
test: recombinant UMI read abundance after kanamycin selection (control-corrected) (log10(CPM+1)); higher = more efficient recombination; extreme values may be limits of the assay; sequences stand for … in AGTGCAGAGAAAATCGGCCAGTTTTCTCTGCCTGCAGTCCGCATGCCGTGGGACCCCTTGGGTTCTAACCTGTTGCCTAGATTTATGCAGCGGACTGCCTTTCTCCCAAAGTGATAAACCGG…AGGTTGGTTTCACT; site = the 11-nt donor

SEQUENCE DATA: CGTAATCCATGGACCGGTTTTCCCGGTAATCCGTATTTGTC (site CGGAATCCTAA)
recombinant UMI read abundance (log10): 0

SEQUENCE DATA: CCAAATACATGGACCGGTTTTCCCGGTAATCCGTATTTGGC (site CCGAATACTGC)
recombinant UMI read abundance (log10): 0

SEQUENCE DATA: GGAGGTACATGGACCGGTTTTCCCGGTAATCCGTATTTGAC (site GAAGGTACTGT)
recombinant UMI read abundance (log10): 0.759

SEQUENCE DATA: GGTTCAACATGGACCGGTTTTCCCGGTAATCCGTATTTGTA (site GGTCCAACTTA)
recombinant UMI read abundance (log10): 0.262

SEQUENCE DATA: GATTCTCCATGGACCGGTTTTCCCGGTAATCCGTATTTGCT (site GATTATCCTAG)
recombinant UMI read abundance (log10): 0

SEQUENCE DATA: ACTCGAACATGGACCGGTTTTCCCGGTAATCCGTATTTGTC (site ACACGAACTGA)
recombinant UMI read abundance (log10): 0

SEQUENCE DATA: CTATCATCATGGACCGGTTTTCCCGGTAATCCGTATTTGCT (site CGATCATCTAG)
recombinant UMI read abundance (log10): 0

SEQUENCE DATA: TCAGTAGCATGGACCGGTTTTCCCGGTAATCCGTATTTGCA (site TCAGTAGCTTG)
recombinant UMI read abundance (log10): 1.9

SEQUENCE DATA: TAAAGTCCATGGACCGGTTTTCCCGGTAATCCGTATTTGGA (site TAAAGTCCTTG)
recombinant UMI read abundance (log10): 0
